# tgt: T1, ITGA2-His (UniProt P17301 30-1132, limits assumed)
# T1 construct: Coated on the ELISA plate at 2 ug/mL; whole entry P17301 is named; also called ITGA2 protein; not shown: His tag
# T1 sequence (looked up): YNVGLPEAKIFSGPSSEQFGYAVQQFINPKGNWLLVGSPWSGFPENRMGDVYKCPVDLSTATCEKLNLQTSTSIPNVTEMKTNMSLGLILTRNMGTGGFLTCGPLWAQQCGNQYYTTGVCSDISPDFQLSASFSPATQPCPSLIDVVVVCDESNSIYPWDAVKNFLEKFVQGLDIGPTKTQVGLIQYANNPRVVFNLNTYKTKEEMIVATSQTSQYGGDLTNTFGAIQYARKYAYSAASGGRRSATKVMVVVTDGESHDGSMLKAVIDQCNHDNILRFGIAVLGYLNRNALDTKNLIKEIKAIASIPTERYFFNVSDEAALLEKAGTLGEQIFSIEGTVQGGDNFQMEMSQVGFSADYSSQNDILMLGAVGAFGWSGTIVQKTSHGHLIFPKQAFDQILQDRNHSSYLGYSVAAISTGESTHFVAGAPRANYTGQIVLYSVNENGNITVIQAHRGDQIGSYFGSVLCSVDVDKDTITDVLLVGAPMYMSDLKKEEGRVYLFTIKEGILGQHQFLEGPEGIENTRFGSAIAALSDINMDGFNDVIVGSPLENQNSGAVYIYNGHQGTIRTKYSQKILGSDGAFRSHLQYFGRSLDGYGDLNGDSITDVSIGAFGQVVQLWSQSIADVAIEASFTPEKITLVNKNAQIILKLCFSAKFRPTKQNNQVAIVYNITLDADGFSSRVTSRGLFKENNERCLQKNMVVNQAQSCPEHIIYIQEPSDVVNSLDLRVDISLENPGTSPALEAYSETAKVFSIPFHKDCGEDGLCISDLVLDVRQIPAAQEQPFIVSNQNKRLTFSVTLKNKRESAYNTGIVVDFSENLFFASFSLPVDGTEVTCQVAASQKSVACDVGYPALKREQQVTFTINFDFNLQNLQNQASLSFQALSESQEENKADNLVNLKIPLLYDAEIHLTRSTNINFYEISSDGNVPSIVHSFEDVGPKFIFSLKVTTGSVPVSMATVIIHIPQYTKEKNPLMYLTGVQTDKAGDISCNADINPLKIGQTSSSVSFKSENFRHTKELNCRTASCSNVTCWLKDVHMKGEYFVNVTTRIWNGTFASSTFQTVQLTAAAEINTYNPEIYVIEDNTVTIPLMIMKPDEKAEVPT
# assayMethodText: ELISA, plate coated with 2 ug/mL ITGA2-His, anti-human IgG-Fc-HRP detection
Give measured pEC50 for each item. Keep answers brief.
Give bare numbers, as −log10 of the molar value.

For the 5 binders below, give their pEC50 values.
1. Humanized antibody FS002-A208-H5L4 (antibody, human IgG1, kappa, V domains shown, Humanized IgG1 kappa) VH: QVQLVQSGAEVKKPGASVKVSCKASGYTFTDYEIHWVRQAPGQGLEWMGAIDPETGGTNYAQKFQGRVTMTADTSISTAYMELSRLRSDDTAVYYCSRSGYYVSNYESYAMDYWGQGTTVTVSS VL: DIQMTQSPSSLSASVGDRVTITCRASQNVGTNVAWYQQKPEKAPKSLIYSASYRFSGVPSRFSGSGSGTDFTLTISSLQPEDFATYYCQQYNIYPLSFGGGTKLELKR
2. Humanized antibody FS002-A208-H3L4 (antibody, human IgG1, kappa, V domains shown, Humanized IgG1 kappa) VH: QVQLVQSGAEVKKPGASVKVSCKASGYTFTDYEIHWVRQAPGQGLEWIGAIDPETGGTNYNQKFNDRVTLTADKSISTAYMELSRLRSDDTAVYYCSRSGYYVSNYESYAMDYWGQGTTVTVSS VL: DIQMTQSPSSLSASVGDRVTITCRASQNVGTNVAWYQQKPEKAPKSLIYSASYRFSGVPSRFSGSGSGTDFTLTISSLQPEDFATYYCQQYNIYPLSFGGGTKLELKR
3. Humanized antibody FS002-A226-H5L4 (antibody, human IgG1, kappa, V domains shown, Humanized IgG1 kappa) VH: QVQLVQSGAEVKKPGASVKVSCKASGYTFTDYEIHWVRQAPGQGLEWMGAIDPETGGTNYAQKFQGRVTMTADTSISTAYMELSRLRSDDTAVYYCSRSGYYVSNYESYAMDYWGQGTTVTVSS VL: DIQLTQSPSSLSASVGDRVTITCRASQDIKSYLSWYQQKPGKAPKLLIYDTSNLASGVPSRFSGSGSGTDFTLTISSLQPEDFATYYCQQWSSYPFTFGGGTKLEIKR
4. Humanized antibody FS002-A226-H4L3 (antibody, human IgG1, kappa, V domains shown, Humanized IgG1 kappa) VH: QVQLVQSGAEVKKPGASVKVSCKASGYTFTDYEIHWVRQAPGQGLEWIGAIDPETGGTNYNQKFQGRVTLTADTSISTAYMELSRLRSDDTAVYYCSRSGYYVSNYESYAMDYWGQGTTVTVSS VL: DIQITQSPSSMSASVGDRVTITCKASQDIKSYLSWYQQKPGKAPKLLIYDTSNLASGVPSRFSGSGSGTDYTLTISSLQPEDFATYYCQQWSSYPFTFGGGTKLEIKR
5. Humanized antibody FS002-A103-H4L3 (antibody, human IgG1, kappa, V domains shown, Humanized IgG1 kappa) VH: QVQLVQSGAEVKKPGASVKVSCKASGYTFTDYEMHWVRQAPGQGLEWMGVIDPETGGTTYNQKFQGRVTLTADTSISTAYMELSRLRSDDTAVYYCSRSGYYVSSYESYAMDYWGQGTTVTVSS VL: EIVMTQSPPTMSMSPGERVTLSCKASENVGTYVSWYQQKPGQAPRLLIYGASTRESGVPARFSGSGSGTDFTLTISSLQPEDFAVYYCQNDYSYPFTFGGGTKLEIKR

[A]
[10.74, 10.66, 10.66, 10.62, 11.22]
